Data provenance is ChEMBL document CHEMBL1132303.

# Test system: HEL
# experiment: The compound was tested for antiviral activity by measuring the concentration required to reduce plaque formation against cytomegalo virus Davis strain
# Format: functional, cell-based
# conditions used: Homo sapiens
measured property: IC50 (nM)
Please reply with the bare figure in nM and do not write the unit itself.

• O=C1O/C(=C\Cn2cc(C(F)(F)F)c(=O)[nH]c2=O)C(OCc2ccccc2)=C1OCc1ccccc1 = 400

Please find the next molecule below.
Looking up Nc1nc2c(ncn2COC(CO)CO)c(=O)[nH]1 , I found its IC50 recorded as 5000

====

Known IC50 of a selection of molecules
# System: HEL
# experiment: The compound was tested for antiviral activity by measuring the concentration required to reduce plaque formation against cytomegalo virus Davis strain
# Type: functional, cell-based
# conditions used: Homo sapiens
Reply with just the number (in µM).

* O=C1O/C(=C\Cn2ccc(=O)[nH]c2=O)C(OCc2ccccc2)=C1OCc1ccccc1 | 3.5

Okay, now this molecule:
Query O=C1O/C(=C\Cn2cc(F)c(=O)[nH]c2=O)C(OCc2ccccc2)=C1OCc1ccccc1 yields IC50 of 3.5
